Origin of values: paper PMC10786891

SYSTEM_NAME: T1, EsCas13d, nuclease-dead (Eubacterium siraeum, UniProt B0MS50, R295A;H300A;R849A;H854A)
T1 sequence: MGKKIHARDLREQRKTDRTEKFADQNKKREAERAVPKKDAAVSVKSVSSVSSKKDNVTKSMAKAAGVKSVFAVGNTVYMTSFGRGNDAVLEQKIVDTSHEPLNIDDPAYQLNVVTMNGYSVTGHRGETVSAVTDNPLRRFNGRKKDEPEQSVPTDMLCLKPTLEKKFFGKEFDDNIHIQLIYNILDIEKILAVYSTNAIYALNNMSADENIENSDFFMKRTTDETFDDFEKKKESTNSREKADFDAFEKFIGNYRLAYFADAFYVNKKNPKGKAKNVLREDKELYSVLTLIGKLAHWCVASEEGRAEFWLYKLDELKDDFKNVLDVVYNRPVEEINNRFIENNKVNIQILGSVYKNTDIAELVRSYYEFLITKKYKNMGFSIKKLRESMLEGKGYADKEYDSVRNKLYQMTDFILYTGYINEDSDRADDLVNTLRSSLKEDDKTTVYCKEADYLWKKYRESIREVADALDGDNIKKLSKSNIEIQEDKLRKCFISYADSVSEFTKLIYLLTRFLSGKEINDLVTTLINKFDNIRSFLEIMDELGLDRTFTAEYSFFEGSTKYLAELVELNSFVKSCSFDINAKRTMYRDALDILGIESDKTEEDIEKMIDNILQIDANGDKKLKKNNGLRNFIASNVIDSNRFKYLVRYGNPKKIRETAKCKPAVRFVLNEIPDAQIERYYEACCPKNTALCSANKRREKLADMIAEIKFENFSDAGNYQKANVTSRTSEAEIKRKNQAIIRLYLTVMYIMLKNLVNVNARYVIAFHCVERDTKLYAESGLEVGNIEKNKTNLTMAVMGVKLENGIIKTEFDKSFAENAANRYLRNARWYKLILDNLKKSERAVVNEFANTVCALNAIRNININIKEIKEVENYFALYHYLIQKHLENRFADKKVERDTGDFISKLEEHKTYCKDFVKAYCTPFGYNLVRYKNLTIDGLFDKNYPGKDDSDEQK
TEST_METHOD_NOTES: crRNA (strand 1, pre-loaded); Mg2+; 40 mM Tris-HCl pH 7.5, 150 mM NaCl, 6 mM MgCl2, 1 mM DTT, 0.1% Tween-20, 0.2 mg/ml BSA; 25 C; 10 min per concentration, then washed
CONDITION: tags: His6-TwinStrep-SUMO cleaved; N-terminal SNAP kept (SNAP-Surface 488); label: 3' end held by stalled T7 RNA polymerase
OUTCOME_MEASURE: Kd

Data request, read-out Kd, for target 2 MT 5'PFS GUU 3'PFS AGG (mixed) RNA 1: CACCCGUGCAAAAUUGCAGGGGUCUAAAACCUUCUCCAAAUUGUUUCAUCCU RNA 2: GGGAAUGGAUCCACAUCUACGAAUUCGUUAGGAUGAAACAAUUUGGAGAAGAGGAGAUCGGAAGAGCACACGU
12.5 nM

Name the recorded Kd for target 1 A16G,U19C (mixed) RNA 1: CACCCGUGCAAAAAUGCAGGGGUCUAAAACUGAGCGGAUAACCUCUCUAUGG RNA 2: GGGAAUGGAUCCACAUCUACGAAUUCGUACCACAGGGAGGUUAUCCGCUCACCGAGAUCGGAAGAGCACACGU .
78 nM

What does the record list as Kd for target 1 insC 3' of 22,insA 3' of 17 (mixed) RNA 1: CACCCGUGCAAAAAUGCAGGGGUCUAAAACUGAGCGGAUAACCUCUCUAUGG RNA 2: GGGAAUGGAUCCACAUCUACGAAUUCGUACCCAUAGAAGAGGUUAUCCGCUCACCGAGAUCGGAAGAGCACACGU ?
33 nM

Can you share its Kd? I mean this binder: target 2 MT 5'PFS UUU 3'PFS UGC (mixed) RNA 1: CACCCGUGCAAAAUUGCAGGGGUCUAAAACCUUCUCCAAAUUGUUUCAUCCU RNA 2: GGGAAUGGAUCCACAUCUACGAAUUCUUUAGGAUGAAACAAUUUGGAGAAGUGCAGAUCGGAAGAGCACACGU
5.2 nM
